B1: KAT8 regulatory NSL complex subunit 2, residues 28 to 91; numbered along this chain, Q9H9L4 (parent)
chain: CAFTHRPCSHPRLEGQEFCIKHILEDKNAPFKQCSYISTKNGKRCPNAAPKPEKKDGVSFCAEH

- Variants of: B1
- assay name: abundance fitness (aPCA) (normalised: wild type 0, dead -1); higher = more abundant; growth selection in yeast, the domain comes from the species named
- assay context: Homo sapiens
Values of abundance fitness greater than or equal to -0.2 map to fulfilled; values below map to not fulfilled.

Some solved cases for reference:
CAFTHRPCSHPRLEGQEFCIKHILEDKNAPFKQCSYISTKNWKRCPNAAPKPEKKDGVSFCAEH [G42W] : not fulfilled
CAFTHRPCSHPRLEGQEFCIKHILLDKNAPFKQCSYISTKNGKRCPNAAPKPEKKDGVSFCAEH [E25L] : fulfilled
CAFTHRPCSHPRLEGQEFCIKHILEDKNAPFKQCSYISTKNGKRCPNAAPKPEKKTGVSFCAEH [D56T] : fulfilled
CAFTHRPCSHPRLEGQEFCIKHILEDKNAPFKQCSYISTKNGKRVPNAAPKPEKKDGVSFCAEH [C45V] : not fulfilled
CAFCHRPCSHPRLEGQEFCIKHILEDKNAPFKQCSYISTKNGKRCPNAAPKPEKKDGVSFCAEH [T4C] : fulfilled
CAFTHRPCSHPRGEGQEFCIKHILEDKNAPFKQCSYISTKNGKRCPNAAPKPEKKDGVSFCAEH [L13G] : not fulfilled
CAFTHRSCSHPRLEGQEFCIKHILEDKNAPFKQCSYISTKNGKRCPNAAPKPEKKDGVSFCAEH [P7S] : fulfilled
CAFTHRPCSHPRLEGQEFCIKHILEDKNAPFKQCSYISTKNGKRCPNARPKPEKKDGVSFCAEH [A49R] : not fulfilled
CAFTHRPCSHPRLEGQSFCIKHILEDKNAPFKQCSYISTKNGKRCPNAAPKPEKKDGVSFCAEH [E17S] : fulfilled
CAFTHRPLSHPRLEGQEFCIKHILEDKNAPFKQCSYISTKNGKRCPNAAPKPEKKDGVSFCAEH [C8L] : not fulfilled

For this variant, is measured abundance fitness -0.2 or higher? CAFTHRPCSHPRLEGQEFCIKHILEDKNAPFHQCSYISTKNGKRCPNAAPKPEKKDGVSFCAEH [K32H]
fulfilled

For this variant, is measured abundance fitness -0.2 or higher? CAFTHRPCSHPRLEGQEFCIKHILEDKNAPFKQCSYISTKNGKRCPNAAPKPEKKDGVSFCTEH [A62T]
fulfilled

For this variant, is measured abundance fitness -0.2 or higher? CAFTHRPCSHPRLEGQEFCIKHILEDKNAPFKQCSYISTKNGKRCPNAAPKPEKKDGVCFCAEH [S59C]
fulfilled

For this variant, is measured abundance fitness -0.2 or higher? CAFTHRPCSHPRLEGQEFCIKHILEDKNAPFKQCSHISTKNGKRCPNAAPKPEKKDGVSFCAEH [Y36H]
fulfilled

For this variant, is measured abundance fitness -0.2 or higher? CAFTKRPCSHPRLEGQEFCIKHILEDKNAPFKQCSYISTKNGKRCPNAAPKPEKKDGVSFCAEH [H5K]
fulfilled

For this variant, is measured abundance fitness -0.2 or higher? CAFTHRPCSCPRLEGQEFCIKHILEDKNAPFKQCSYISTKNGKRCPNAAPKPEKKDGVSFCAEH [H10C]
fulfilled

For this variant, is measured abundance fitness -0.2 or higher? CAFTHRPCSHPRLEGQEFCIKHILEDKNAPFKQCSYISTKNGKRCPKAAPKPEKKDGVSFCAEH [N47K]
fulfilled

For this variant, is measured abundance fitness -0.2 or higher? CAFTHRPCSHPRLEGQEFCIKHILEDKNAPFKQCSYISTKNGKRCHNAAPKPEKKDGVSFCAEH [P46H]
fulfilled

For this variant, is measured abundance fitness -0.2 or higher? CAFTHRPCSHPRLEGQEFCIKHILGDKNAPFKQCSYISTKNGKRCPNAAPKPEKKDGVSFCAEH [E25G]
fulfilled

For this variant, is measured abundance fitness -0.2 or higher? CAFTHRPCSHPRLEGQEFCIKHILEDKNAPFKQCSYISTKNGKRCPNAAPKPEKKDGVGFCAEH [S59G]
fulfilled

For this variant, is measured abundance fitness -0.2 or higher? CAFTHRPCSHPRLEGQEFCIKHILEDKNAPFKQCSYISTKNGKRCPNALPKPEKKDGVSFCAEH [A49L]
fulfilled

For this variant, is measured abundance fitness -0.2 or higher? CAFTHRPCDHPRLEGQEFCIKHILEDKNAPFKQCSYISTKNGKRCPNAAPKPEKKDGVSFCAEH [S9D]
fulfilled

For this variant, is measured abundance fitness -0.2 or higher? CAFTHRPCSHPRLEGQEFCIHHILEDKNAPFKQCSYISTKNGKRCPNAAPKPEKKDGVSFCAEH [K21H]
fulfilled

For this variant, is measured abundance fitness -0.2 or higher? CAFTHRPCSHPRLEGQEFCIKHELEDKNAPFKQCSYISTKNGKRCPNAAPKPEKKDGVSFCAEH [I23E]
not fulfilled

For this variant, is measured abundance fitness -0.2 or higher? CAFTHRPCSHPRLEGQEFCIQHILEDKNAPFKQCSYISTKNGKRCPNAAPKPEKKDGVSFCAEH [K21Q]
fulfilled

For this variant, is measured abundance fitness -0.2 or higher? CAHTHRPCSHPRLEGQEFCIKHILEDKNAPFKQCSYISTKNGKRCPNAAPKPEKKDGVSFCAEH [F3H]
fulfilled

For this variant, is measured abundance fitness -0.2 or higher? CAFTHRPYSHPRLEGQEFCIKHILEDKNAPFKQCSYISTKNGKRCPNAAPKPEKKDGVSFCAEH [C8Y]
not fulfilled

For this variant, is measured abundance fitness -0.2 or higher? CAFTHRPCSHPRLEGQEFCIKHILEDKNAPFKQCSYISTKNGKRCPNAAPKPEKKDGNSFCAEH [V58N]
fulfilled

For this variant, is measured abundance fitness -0.2 or higher? CAFTHRPCSHPRLEGQEFCIKWILEDKNAPFKQCSYISTKNGKRCPNAAPKPEKKDGVSFCAEH [H22W]
not fulfilled

For this variant, is measured abundance fitness -0.2 or higher? CAFTHRPCSHPRLEGQEFCIKHILEDKNRPFKQCSYISTKNGKRCPNAAPKPEKKDGVSFCAEH [A29R]
fulfilled

For this variant, is measured abundance fitness -0.2 or higher? CVFTHRPCSHPRLEGQEFCIKHILEDKNAPFKQCSYISTKNGKRCPNAAPKPEKKDGVSFCAEH [A2V]
not fulfilled
